Data origin: patent US9745314B2

- EXPERIMENT SUMMARY: Oral pharmacokinetics in Sprague-Dawley rats
- CONDITION CONTEXT: rat, in vivo, 25 mg/kg oral
Answer each item with its documented Tmax.
Numbers only, in h.

COMPOUND: CN1[C@@H](C(=O)NC23CCC(C(=O)O)(CC2)CC3)[C@H](c2cccc(Cl)c2F)[C@]2(C(=O)Nc3cc(Cl)ccc32)C12CCCCC2 [Cpd No. 7]
Tmax / h: 4
//
COMPOUND: O=C(NC12CCC(C(=O)O)(CC1)CC2)[C@@H]1NC2(CCCCC2)[C@@]2(C(=O)Nc3cc(Cl)ccc32)[C@H]1c1cccc(Cl)c1F [Cpd No. 2]
Tmax / h: 3.33

Tmax for CCN1[C@@H](C(=O)NC23CCC(C(=O)O)(CC2)CC3)[C@H](c2cccc(Cl)c2F)[C@]2(C(=O)Nc3cc(Cl)ccc32)C12CCCCC2 [Cpd No. 8] ?
4

====

Answer each item with its documented half-life.
- EXPERIMENT SUMMARY: Oral pharmacokinetics in Sprague-Dawley rats
- CONDITION CONTEXT: rat, in vivo, 25 mg/kg oral
Answers are plain numbers, in h.

Worked set:
SAMPLE SMILES: CCN1[C@@H](C(=O)NC23CCC(C(=O)O)(CC2)CC3)[C@H](c2cccc(Cl)c2F)[C@]2(C(=O)Nc3cc(Cl)ccc32)C12CCCCC2
half-life [h]: 4.61

SAMPLE SMILES: O=C(NC12CCC(C(=O)O)(CC1)CC2)[C@@H]1NC2(CCCCC2)[C@@]2(C(=O)Nc3cc(Cl)ccc32)[C@H]1c1cccc(Cl)c1F
half-life [h]: 4.29

# evaluate next
half-life for CN1[C@@H](C(=O)NC23CCC(C(=O)O)(CC2)CC3)[C@H](c2cccc(Cl)c2F)[C@]2(C(=O)Nc3cc(Cl)ccc32)C12CCCCC2 ?
3.89

====

- Tested on: SJSA-1 cells
- EXPERIMENT SUMMARY: Cell growth assay (WST-8), SJSA-1
- Type: cell-based, human
- CONDITION CONTEXT: Homo sapiens, SJSA-1, 96 h; 4 days, WST-8; read-out: Cell Growth Inhibition IC50 (μM) SJSA-1
Quick rule for you: IC50 under 0.2 µM gets satisfied, anything else gets not satisfied.

SAMPLE SMILES: O=C(NC12CC(C(=O)O)(C1)C2)[C@@H]1NC2(CCCCC2)[C@@]2(C(=O)Nc3cc(Cl)ccc32)[C@H]1c1cccc(Cl)c1F
CLASSIFICATION: not satisfied

A record lists CN1[C@@H](C(=O)NC23CCC(C(N)=O)(CC2)CC3)[C@H](c2cccc(Cl)c2F)[C@]2(C(=O)Nc3cc(Cl)ccc32)C12CCCCC2 . Is its IC50 below 0.2 µM?
satisfied

A record lists O=C(NC12CCC(C(=O)O)(CC1)CC2)[C@@H]1NC2(CCC(F)(F)CC2)[C@@]2(C(=O)Nc3cc(Cl)ccc32)[C@H]1c1cccc(Cl)c1F . Is its IC50 below 0.2 µM?
satisfied

A record lists CS(=O)(=O)NC(=O)C12CCC(NC(=O)[C@@H]3NC4(CCCCC4)[C@@]4(C(=O)Nc5cc(Cl)ccc54)[C@H]3c3cccc(Cl)c3F)(CC1)CC2 . Is its IC50 below 0.2 µM?
not satisfied

A record lists O=C(NC12CCC(C(=O)O)(CC1)CC2)[C@@H]1NC2(CCCCC2)[C@@]2(C(=O)Nc3cc(Cl)ccc32)[C@H]1c1cccc(Cl)c1F . Is its IC50 below 0.2 µM?
satisfied

A record lists CCN1[C@@H](C(=O)NC23CCC(C(=O)O)(CC2)CC3)[C@H](c2cccc(Cl)c2F)[C@]2(C(=O)Nc3cc(Cl)ccc32)C12CCCCC2 . Is its IC50 below 0.2 µM?
satisfied

====

- Tested on: LNCaP
- EXPERIMENT SUMMARY: Cell growth assay (WST), LNCaP
- Assay type: cell-based
- CONDITION CONTEXT: Homo sapiens, 96 h, Prostate cancer, p53 wild-type, 4 days, read-out: Cell Growth Inhibition (IC50) LNCaP
MEASURE: pIC50
Numbers only, as −log10 of the molar value.

SAMPLE SMILES: CCN1[C@@H](C(=O)NC23CCC(C(=O)O)(CC2)CC3)[C@H](c2cccc(Cl)c2F)[C@]2(C(=O)Nc3cc(Cl)ccc32)C12CCCCC2
pIC50: 7.74

# evaluate next
pIC50 for O=C(NC12CCC(C(=O)O)(CC1)CC2)[C@@H]1NC2(CCCCC2)[C@@]2(C(=O)Nc3cc(Cl)ccc32)[C@H]1c1cccc(Cl)c1F ?
7.44

====

- EXPERIMENT SUMMARY: Oral pharmacokinetics in Sprague-Dawley rats
- CONDITION CONTEXT: rat, in vivo, 25 mg/kg oral
Answer each item with its documented AUC(0-inf).
Numbers only, in ng·h/mL.

COMPOUND: CCN1[C@@H](C(=O)NC23CCC(C(=O)O)(CC2)CC3)[C@H](c2cccc(Cl)c2F)[C@]2(C(=O)Nc3cc(Cl)ccc32)C12CCCCC2 [Cpd No. 8]
MEASURED RESULT: 39500

Would you mind giving AUC(0-inf) for every compound in the list below?
1. O=C(NC12CCC(C(=O)O)(CC1)CC2)[C@@H]1NC2(CCCCC2)[C@@]2(C(=O)Nc3cc(Cl)ccc32)[C@H]1c1cccc(Cl)c1F [Cpd No. 2]
2. CN1[C@@H](C(=O)NC23CCC(C(=O)O)(CC2)CC3)[C@H](c2cccc(Cl)c2F)[C@]2(C(=O)Nc3cc(Cl)ccc32)C12CCCCC2 [Cpd No. 7]

1: 74300; 2: 35400

====

- TARGET UNDER TEST: recombinant human His-tagged MDM2 protein (residues 1-118) (Homo sapiens, UniProt Q00987)
- Sequence (Q00987 1-118): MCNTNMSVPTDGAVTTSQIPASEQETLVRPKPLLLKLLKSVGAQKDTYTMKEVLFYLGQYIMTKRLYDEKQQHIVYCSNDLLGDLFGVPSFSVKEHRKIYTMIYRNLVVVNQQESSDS
- EXPERIMENT SUMMARY: biochemical
MEASURE: pIC50
One number for each entry, as −log10 of the molar value.

Would you mind giving pIC50 for every compound in the list below?
1. CC1(O)CCC2(CC1)N[C@@H](C(=O)NC13CCC(C(=O)O)(CC1)CC3)[C@H](c1cccc(Cl)c1F)[C@]21C(=O)Nc2cc(Cl)ccc21 (stereo partly shown) [Cpd No. 6]
2. O=C(NC12CCC(C(=O)O)(CC1)CC2)[C@@H]1NC2(CCCCC2)[C@@]2(C(=O)Nc3cc(Cl)ccc32)[C@H]1c1cccc(Cl)c1F [Cpd No. 2]
3. O=C(NC12CCC(C(=O)O)(CC1)CC2)[C@@H]1NC2(CCC(F)(F)CC2)[C@@]2(C(=O)Nc3cc(Cl)ccc32)[C@H]1c1cccc(Cl)c1F [Cpd No. 3]

1. 8.14
2. 8.28
3. 8.06

====

- TARGET UNDER TEST: recombinant human His-tagged MDM2 protein (residues 1-118) (Homo sapiens, UniProt Q00987)
- EXPERIMENT SUMMARY: biochemical
MEASURE: pIC50
Numbers only, as −log10 of the molar value.

COMPOUND: CC1(O)CCC2(CC1)N[C@@H](C(=O)NC13CCC(C(=O)O)(CC1)CC3)[C@H](c1cccc(Cl)c1F)[C@]21C(=O)Nc2cc(Cl)ccc21 (stereo partly shown) [Cpd No. 5]
MEASURED RESULT: 6.88
//
COMPOUND: O=C(NC12CC(C(=O)O)(C1)C2)[C@@H]1NC2(CCCCC2)[C@@]2(C(=O)Nc3cc(Cl)ccc32)[C@H]1c1cccc(Cl)c1F
MEASURED RESULT: 8.27
//
COMPOUND: CS(=O)(=O)NC(=O)C12CCC(NC(=O)[C@@H]3NC4(CCCCC4)[C@@]4(C(=O)Nc5cc(Cl)ccc54)[C@H]3c3cccc(Cl)c3F)(CC1)CC2
MEASURED RESULT: 8.10

# evaluate next
pIC50 for CN1[C@@H](C(=O)NC23CCC(C(N)=O)(CC2)CC3)[C@H](c2cccc(Cl)c2F)[C@]2(C(=O)Nc3cc(Cl)ccc32)C12CCCCC2 ?
8.28
